Parameter inhibition: see the listing below.
- targetEntity: 1,4-dihydroxy-2-naphthoyl-CoA synthase (Mycobacterium tuberculosis (strain ATCC 25618 / H37Rv))
- method: M. tuberculosis MenB inhibitors, primary screen, biochemical, absorbance (AID 540299)
- testSettings: MenB enzyme assay, absorbance read-out; hits give high values; concentration not given here
Hit rate of the full screen: of about 100,000 compounds, about 440 (0.44%) were called active. What follows is part of a selection rich in actives, with near analogues and random picks from the rest.
# unit: % | format: bare number

- compound: "COc1ccc(-c2noc(N3CCN(c4ccc(OC)cc4)CC3)n2)cc1"
  resultUnits: "%"
  experimentalResult: 1.43
- compound: "O=C1C2N=NN(CC(=O)N(c3ccccc3)c3ccccc3)C2C(=O)N1c1ccc(Cl)cc1 (configuration not stated)"
  resultUnits: "%"
  experimentalResult: -6.55
- compound: "CCOC(=O)c1cnc2cc(C(F)(F)F)ccc2c1N1CCCCCC1"
  resultUnits: "%"
  experimentalResult: -32.7
- compound: "N#CC(C#N)=Cc1ccc(OC(=O)c2cccs2)cc1"
  resultUnits: "%"
  experimentalResult: 0.71
- compound: "CC(=O)Oc1ccc(N(C(C)=O)S(=O)(=O)c2ccc(Cl)cc2)cc1"
  resultUnits: "%"
  experimentalResult: -5.01
- compound: "CCOC(=O)N1CCC(NC(=O)Cn2nc(Cc3cccnc3)c3ccccc3c2=O)CC1"
  resultUnits: "%"
  experimentalResult: 13.3

Name the reported inhibition value associated with the compound COc1cc(CNC(=O)c2ccc(N(C)C)cc2)cc(OC)c1OC
-9.81

Name the reported inhibition value associated with the compound CC1CCCCN1CC(=O)Nc1cc(C(C)(C)C)nn1-c1ccccc1 (configuration not stated)
7.46

Name the reported inhibition value associated with the compound COC(=O)c1ccc(NC(=O)C(C(C)C)N2C(=O)c3ccccc3C2=O)cc1 (configuration not stated)
0.235

Name the reported inhibition value associated with the compound S=C(NC1CCCCC1)NN1CCOCC1
-1.62

Name the reported inhibition value associated with the compound COc1ccc(S(=O)(=O)N(C)C)cc1
-20.5

Name the reported inhibition value associated with the compound O=C1CC2NCCc3cccc1c32 (configuration not stated)
-9.34
